Source listed as patent US20160257651A1.

# Test system: S. aureus Mu50
# assay-info: microbe, parasite or virus in culture
# Type: cell-based, Staphylococcus aureus
# settings: S. aureus Mu50, quinolone-resistant MRSA; ParC S80F, GyrA S84L
property: MIC (µg/mL)
Give your result in µg/mL as a bare value.

// worked examples, MIC included
Cn1c(=O)cc(CO)c2cc(F)c(-c3ccc(O)cc3)cc21 [J-131]
4
C[C@H]1COc2c(N3CCN(C)CC3)c(F)cc3c(=O)c(C(=O)O)cn1c23 [LVX, levofloxacin]
8
CC(=O)N1COc2c1ccc1c(CO)cc(=O)n(C)c21 [J-125a]
16
CC1COc2c(N3CCN(C)CC3)c(F)cc3c(=O)c(C(=O)O)cn1c23 (centres unmarked) [OFX, ofloxacin]
16

Next compound, MIC to be filled in.
Qu. # assay system S. aureus Mu50: give MIC of Cn1c(=O)cc(CO)c2ccc3c(c21)OCO3 [J-103]
Ans. 16

* * *

Target or system Staphylococcus aureus USA300FPR (CA-MRSA): recorded MIC listed per item.
Give your result in µg/mL as a bare value.

NC1CCN(c2nc3c(cc2F)c(=O)c(C(=O)O)cn3-c2ccc(F)cc2F)C1 (stereo not shown) [TSX, tosufloxacin]
16
C[C@@H]1CN(c2c(F)c(N)c3c(=O)c(C(=O)O)cn(C4CC4)c3c2F)C[C@H](C)N1 [SPX, sparfloxacin]
8
CC1COc2c(N3CCN(C)CC3)c(F)cc3c(=O)c(C(=O)O)cn1c23 (stereo not shown) [OFX, ofloxacin]
16

Qu. Output measured MIC for this item: O=C(O)c1cn(C2CC2)c2cc(N3CCNCC3)c(F)cc2c1=O [CIP, ciprofloxacin]
Ans. 16

Qu. Output measured MIC for this item: CCn1cc(C(=O)O)c(=O)c2cc(F)c(N3CCNCC3)cc21 [NOR, norfloxacin]
Ans. 32

Qu. Output measured MIC for this item: C[C@H]1COc2c(N3CCN(C)CC3)c(F)cc3c(=O)c(C(=O)O)cn1c23 [LVX, levofloxacin]
Ans. 4

* * *

Entries and their log10(MIC)
# Test system: S. aureus Mu50
# assay-info: microbe, parasite or virus in culture
# Format: cell-based, Staphylococcus aureus
# settings: Staphylococcus aureus, MRSA, S. aureus Mu50, quinolone-resistant MRSA; ParC S80F, GyrA S84L
A difference of one corresponds to tenfold MIC; all values are log10 with MIC in µg/mL.

C[C@H]1COc2c(-c3ccc(O)cc3)c(F)cc3c(CO)cc(=O)n1c23 [J-149A]
-0.30
CNc1ncc(-c2ccc3c(CO)cc(=O)n(C4CC4)c3c2)cc1C
0.90
O=c1cc(CO)c2cc(F)c(-c3ccc(O)c(O)c3)cc2n1C1CC1
0.00
NC(=O)c1cc(=O)n(C2CC2)c2cc(-c3ccc(O)cc3)c(F)cc12
0.30
CC1COc2c(-c3ccc(O)cc3)c(F)cc3c(CO)cc(=O)n1c23 (stereo not drawn)
-0.30
O=c1cc(CO)c2ccc(-c3ccc(O)cc3)c3c2n1CO3
1.20

Qu. Output measured log10(MIC) for this item: CC(O)c1cc(=O)n(C2CC2)c2cc(-c3ccc4c(c3)CNC4C)c(F)cc12 (stereo not drawn) [J-144M]
Ans. 0.60

Qu. Output measured log10(MIC) for this item: CC1NCc2cc(-c3cc4c(cc3F)c(CO)cc(=O)n4C3CC3)ccc21 (stereo not drawn)
Ans. 0.00

Qu. Output measured log10(MIC) for this item: Cc1cc(=O)n(C)c2cc(-c3ccc(O)cc3)ccc12 [J-121Me]
Ans. 0.60

Qu. Output measured log10(MIC) for this item: `CC(=O)OCc1cc(=O)n(C2CC2)c2cc(-c3ccc(O)cc3)c(F)cc12`
Ans. 0.60

Qu. Output measured log10(MIC) for this item: Cc1cc(=O)n2c3c(c(-c4ccc(O)cc4)c(F)cc13)OCC2C (stereo not drawn) [J-149d]
Ans. -0.30

Qu. Output measured log10(MIC) for this item: Nc1ccc(-c2cc3c(cc2F)c(CO)cc(=O)n3C2CC2)cc1 [J-132CP]
Ans. -0.30

* * *

# System: E. faecalis 36-15722
# assay-info: MIC against Enterococcus bacteria
# Format: cell-based, Enterococcus faecalis
# settings: Enterococcus faecalis, 3615722; E. faecalis 36-15722, quinolone-resistant; ParC 80Ile, GyrA 84Ile; read-out: MIC
property: MIC (µg/mL)
Give your result in µg/mL as a bare value.

// worked examples, MIC included
O=c1cc(CO)c2cc(F)c(-c3ccc(O)c(O)c3)cc2n1C1CC1
2
O=c1cc(CO)c2ccc(-c3ccc(O)cc3)c(F)c2n1C1CC1
2
CC(O)c1cc(=O)n(C2CC2)c2cc(-c3ccc4c(c3)CNC4C)c(F)cc12 (centres unmarked) [J-144M]
2
COc1c(-c2ccc(O)cc2)c(F)cc2c(CO)cc(=O)n(C3CC3)c12
2

Qu. Output measured MIC for this item: `C[C@@H]1CN(c2c(F)c(N)c3c(=O)c(C(=O)O)cn(C4CC4)c3c2F)C[C@H](C)N1`
Ans. 64

Qu. Output measured MIC for this item: CC1NCc2cc(-c3cc4c(cc3F)c(CO)cc(=O)n4C3CC3)ccc21 (centres unmarked)
Ans. 0.5

Qu. Output measured MIC for this item: Nc1ccc(-c2cc3c(cc2F)c(CO)cc(=O)n3C2CC2)cc1 [J-132CP]
Ans. 2

Qu. Output measured MIC for this item: CC1COc2c(N3CCN(C)CC3)c(F)cc3c(=O)c(C(=O)O)cn1c23 (centres unmarked)
Ans. 64

Qu. Output measured MIC for this item: `NOCc1cc(=O)n(C2CC2)c2cc(-c3ccc(O)cc3)c(F)cc12`
Ans. 8

Qu. Output measured MIC for this item: `O=c1cc(CO)c2cc(F)c(-c3ccc(O)cc3)c(F)c2n1C1CC1`
Ans. 1

* * *

# System: S. aureus Mu50
# assay-info: microbe, parasite or virus in culture
# Assay type: cell-based, Staphylococcus aureus
# settings: Staphylococcus aureus, MRSA, S. aureus Mu50, quinolone-resistant MRSA; ParC S80F, GyrA S84L
property: MIC

// worked examples, MIC included
C[C@@H]1CN(c2c(F)c(N)c3c(=O)c(C(=O)O)cn(C4CC4)c3c2F)C[C@H](C)N1 [SPX, sparfloxacin]
8 to 128 µg/mL
CC1COc2c(N3CCN(C)CC3)c(F)cc3c(=O)c(C(=O)O)cn1c23 (stereo not drawn) [OFX, ofloxacin]
8 to 128 µg/mL

Next molecule, MIC to be filled in.
Qu. # assay system S. aureus Mu50: give MIC of C[C@H]1COc2c(N3CCN(C)CC3)c(F)cc3c(=O)c(C(=O)O)cn1c23 [LVX, levofloxacin]
Ans. 8 to 128 µg/mL
